The measured values listed here are drawn from the supplement of paper PMC7125110.

B1: glmS ribozyme (parent)
chain: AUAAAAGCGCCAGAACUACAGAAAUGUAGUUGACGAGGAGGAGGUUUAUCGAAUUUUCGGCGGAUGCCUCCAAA

# Variants of: B1
# experiment-description: self-cleavage kobs at 10000 uM GlcN6P; higher = faster cleavage; RNA array
# condition: with glucosamine-6-phosphate
This sample holds only a part of the variants without activity.

>  <input-sequence>
AUAAAAGCGGCAGAACUACAGAAAUGUAGUUGACGAGGAGGAGGUUUAUCGAAUUUUCGGCAGAUGCCUCCAAA [C10G G62A]

>  <self-cleavage kobs at 10000 uM GlcN6P>
< 1e-05 s⁻¹

$$$$
>  <input-sequence>
AUAAAAGCGCCAGAACUACAGAAAUGUAGUUGGCGAGGAGGAGGUUUAUCGAAUUUUCGGCGGAUACCUCCAAA [A33G G66A]

>  <self-cleavage kobs at 10000 uM GlcN6P>
< 1e-05 s⁻¹

$$$$
>  <input-sequence>
AUAAAAGCGCCAGAACUACAGAAAUGUAGUUGACGUGGAGGAGGUUUAUCGUAUUUUCGGCGGAGGCCCCCAAA [A36U A52U U65G U69C]

>  <self-cleavage kobs at 10000 uM GlcN6P>
< 1e-05 s⁻¹

$$$$
>  <input-sequence>
AUAAAAGCGCCAGAACUACAGAAAUGUAGUCGACGAGGAGGAGGUUUAUCGAAUUUUCGGAGGAUGCCUCCAAA [U31C C61A]

>  <self-cleavage kobs at 10000 uM GlcN6P>
< 1e-05 s⁻¹

$$$$
>  <input-sequence>
AUAAAAGCGCCAGAACUACAGAAAUGUAGUUGAUGAGGAUGAGGUUUAUUGAAUUUUCGGCGGAUGCCUCCAAA [C34U G40U C50U]

>  <self-cleavage kobs at 10000 uM GlcN6P>
< 1e-05 s⁻¹

$$$$
>  <input-sequence>
AUAAAAGCGCCAGAACUACAGAAAUGUAGUUGACGAGGAGGAGGUUUGUCGAAUUUUUGGCGGUUGCCUCCAAA [A48G C58U A64U]

>  <self-cleavage kobs at 10000 uM GlcN6P>
< 1e-05 s⁻¹

$$$$
>  <input-sequence>
AUAAAAGCGCCAGAACUACAGAAAUGUAGUUGCCGAGGAGGAGGUUUAUCGAAUUUUCGGCGUAUGCCUCCAAA [A33C G63U]

>  <self-cleavage kobs at 10000 uM GlcN6P>
< 1e-05 s⁻¹

$$$$
>  <input-sequence>
AUAAAAGCGCCAGAAGUACAGAAAUGUAGUUGACGAGGAGGAGGUUUAUCGAAUUUUCGGCUGAUGCCUCCAAA [C16G G62U]

>  <self-cleavage kobs at 10000 uM GlcN6P>
< 1e-05 s⁻¹

$$$$
>  <input-sequence>
AUAAAAGCGUCAGAACUACAGAAAUGUAGUUGACUAGGAGGGGGUUUAUCGAAUUGUCGGCGGAUGCCUCCAAA [C10U G35U A42G U56G]

>  <self-cleavage kobs at 10000 uM GlcN6P>
< 1e-05 s⁻¹

$$$$
>  <input-sequence>
AUAAAAGCGCCAGAACUACAGAAAUGUAGUUGAAGAGGAGGAGGUUUAUUGAAUUUUCGGCGGAUGCCUCCAAA [C34A C50U]

>  <self-cleavage kobs at 10000 uM GlcN6P>
< 1e-05 s⁻¹

$$$$
>  <input-sequence>
AUAAAAGCGCAAGGACUACAGAAAUGUAGUUGAUGAGGAGGAGGUUUAUCGAAUUUUCGGCGGAUCCCUCCAAA [C11A A14G C34U G66C]

>  <self-cleavage kobs at 10000 uM GlcN6P>
< 1e-05 s⁻¹

$$$$
>  <input-sequence>
AUAAAAGCGCCAGAACUACAGAAAUGUAGUUUACGAGGAGGAGGUUUAUCGAAUUUUGGGCGGGUGACUCCAAA [G32U C58G A64G C67A]

>  <self-cleavage kobs at 10000 uM GlcN6P>
0.000152 s⁻¹

$$$$
>  <input-sequence>
AUAAAAGUGCCAGAACUACAGAAAUGUAGUUGACGAGGAGGAGGUUUAUCGAAUGUUCGGCGGAGGCCUCCAAA [C8U U55G U65G]

>  <self-cleavage kobs at 10000 uM GlcN6P>
< 1e-05 s⁻¹

$$$$
>  <input-sequence>
AUAAAAGCGCCGGAACUACAGAAAUGUAGUUGACGAGGAAGAGGUUUAUCGAAUCUUCGGCGGAUGCCUCCAAA [A12G G40A U55C]

>  <self-cleavage kobs at 10000 uM GlcN6P>
9.22e-05 s⁻¹

$$$$
>  <input-sequence>
AUAAAAGCGCCAGAACUACAGAAAUGUAGUUGACCAGGAGGAGGUUUAUCGAAUUUUCGGCGGAUGCCUUCAAA [G35C C70U]

>  <self-cleavage kobs at 10000 uM GlcN6P>
< 1e-05 s⁻¹

$$$$
>  <input-sequence>
AUAAAAGCGCCUGAACUACAGAAAUGUAGUUGACGAGGAGGGGGUUUAUCGAAUUAUCGGCGGAUGUCUCCAAA [A12U A42G U56A C67U]

>  <self-cleavage kobs at 10000 uM GlcN6P>
0.00431 s⁻¹

$$$$
>  <input-sequence>
AUAAAAGCGCCAGAACUACAGAAAUGUAUUUGACGAGGAGGAGGUUUAUCGAAUUAUCGGCGGAUGCCUCCAAA [G29U U56A]

>  <self-cleavage kobs at 10000 uM GlcN6P>
0.00285 s⁻¹

$$$$
